Entries below carry reported Ki on Solute carrier organic anion transporter family member 1B3 (Homo sapiens).
Sequence (Q9NPD5 whole entry): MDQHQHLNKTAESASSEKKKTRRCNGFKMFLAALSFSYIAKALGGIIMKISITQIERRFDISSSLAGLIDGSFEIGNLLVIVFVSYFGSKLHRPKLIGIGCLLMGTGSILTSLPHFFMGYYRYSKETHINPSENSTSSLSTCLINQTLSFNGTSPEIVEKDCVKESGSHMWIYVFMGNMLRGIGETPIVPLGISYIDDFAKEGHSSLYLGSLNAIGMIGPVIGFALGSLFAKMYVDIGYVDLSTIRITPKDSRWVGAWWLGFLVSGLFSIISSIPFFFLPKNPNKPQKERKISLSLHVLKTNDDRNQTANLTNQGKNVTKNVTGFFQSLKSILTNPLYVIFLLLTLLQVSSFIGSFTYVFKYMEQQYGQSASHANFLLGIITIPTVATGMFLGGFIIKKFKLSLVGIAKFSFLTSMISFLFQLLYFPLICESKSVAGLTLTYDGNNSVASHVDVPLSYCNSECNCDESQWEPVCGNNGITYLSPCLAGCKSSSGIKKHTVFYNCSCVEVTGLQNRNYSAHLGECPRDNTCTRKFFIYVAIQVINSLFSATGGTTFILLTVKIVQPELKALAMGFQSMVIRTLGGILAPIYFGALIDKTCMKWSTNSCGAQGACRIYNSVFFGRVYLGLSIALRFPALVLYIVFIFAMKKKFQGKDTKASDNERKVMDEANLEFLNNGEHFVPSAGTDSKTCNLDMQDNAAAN
Report the figure in nM without appending any unit label.

>>> datavalue("O=C(O[C@@H]1Cc2c(O)cc(O)cc2O[C@@H]1c1cc(O)c(O)c(O)c1-c1c([C@H]2Oc3cc(O)cc(O)c3C[C@H]2O)cc(O)c(O)c1O)c1cc(O)c(O)c(O)c1 [2',2'-BISEPIGALLOCATECHIN MONOGALLATE]")
6500
>>> datavalue("C=C1[C@@H]2CC[C@@]3(C)[C@H](c4ccoc4)OC(=O)C[C@]13O[C@H]1C[C@H](OC(C)=O)C(C)(C)[C@H](CC(=O)OC)[C@]12C")
3470
>>> datavalue("CCOC(=O)CCC(=O)O[C@H]1[C@H](O[C@@H]2[C@@H](C)[C@H](O[C@H]3C[C@@](C)(OC)[C@@H](O)[C@H](C)O3)[C@@H](C)C(=O)O[C@H](CC)[C@@](C)(O)[C@H](O)[C@@H](C)C(=O)[C@H](C)C[C@@]2(C)O)O[C@H](C)C[C@@H]1N(C)C [ERYTHROMYCIN ETHYLSUCCINATE]")
1610

Kindly review the next compound as well.
Endpoint output: Ki of CC(C)CCCC1(C)C=Cc2c(O)c3c(c(CCC(C)C)c2O1)OC12C(CC4CC1C(C)(C)OC2(CCC(C)C(=O)O)C4O)C3=O (centres undefined) [DECAHYDROGAMBOGIC ACID] . Value?
1770

Attribution: ChEMBL document CHEMBL3039007
